target: HER2 S310F (Homo sapiens, UniProt P04626, S310F); construct: expressed in transfected cells; host or cells: BaF3 (murine pro-B); experiment: BaF3 cell proliferation assay, HER2 S310F (Table B); type: cell-based; conditions: potency code, 3 days, CellTiterGlo, read-out: HER2 S310F (Activity for Inhibiting HER2)
Sequence (P04626 23-1255 S310F): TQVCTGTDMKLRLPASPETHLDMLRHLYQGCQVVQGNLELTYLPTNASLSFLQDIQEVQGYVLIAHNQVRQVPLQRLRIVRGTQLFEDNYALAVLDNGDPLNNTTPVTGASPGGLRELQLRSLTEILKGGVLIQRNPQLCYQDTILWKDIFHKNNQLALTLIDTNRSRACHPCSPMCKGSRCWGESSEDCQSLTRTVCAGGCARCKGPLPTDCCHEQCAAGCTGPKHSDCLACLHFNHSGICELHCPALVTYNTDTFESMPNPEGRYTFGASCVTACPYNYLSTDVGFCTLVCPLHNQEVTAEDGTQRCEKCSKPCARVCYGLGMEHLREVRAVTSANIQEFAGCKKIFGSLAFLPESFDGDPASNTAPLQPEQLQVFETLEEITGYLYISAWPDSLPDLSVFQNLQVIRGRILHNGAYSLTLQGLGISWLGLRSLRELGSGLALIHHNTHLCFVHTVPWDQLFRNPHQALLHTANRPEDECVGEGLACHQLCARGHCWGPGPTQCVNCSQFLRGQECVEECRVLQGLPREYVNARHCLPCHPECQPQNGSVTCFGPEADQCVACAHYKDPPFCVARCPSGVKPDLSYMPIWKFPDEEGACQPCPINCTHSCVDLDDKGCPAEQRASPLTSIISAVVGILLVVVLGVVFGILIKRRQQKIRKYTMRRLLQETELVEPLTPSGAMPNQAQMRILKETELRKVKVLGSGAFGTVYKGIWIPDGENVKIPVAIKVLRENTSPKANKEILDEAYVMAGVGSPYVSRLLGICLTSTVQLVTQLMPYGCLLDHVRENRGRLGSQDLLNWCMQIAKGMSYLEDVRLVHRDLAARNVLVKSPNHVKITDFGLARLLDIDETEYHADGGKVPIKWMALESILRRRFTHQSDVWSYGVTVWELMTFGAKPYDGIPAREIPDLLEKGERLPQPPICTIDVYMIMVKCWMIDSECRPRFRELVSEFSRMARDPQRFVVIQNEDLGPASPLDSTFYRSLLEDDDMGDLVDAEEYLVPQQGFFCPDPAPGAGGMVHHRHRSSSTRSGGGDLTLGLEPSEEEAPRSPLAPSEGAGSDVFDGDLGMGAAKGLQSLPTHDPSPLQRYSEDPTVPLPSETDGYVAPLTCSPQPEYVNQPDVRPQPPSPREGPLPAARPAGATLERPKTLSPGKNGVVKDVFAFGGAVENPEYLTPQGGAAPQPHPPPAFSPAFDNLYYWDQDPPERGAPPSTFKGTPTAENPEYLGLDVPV
pIC50: −log10 of the molar value.
Measure: pIC50

Reference set, count: 3
Compound: C=CC(=O)Nc1cc2c(Nc3ccc(OCc4ccccn4)c(Cl)c3)ncnc2cc1OCCN(C)C1CCOC1 (stereo not shown) [compound 41]
pIC50: 7.52 to 7.70
//
Compound: C=CC(=O)Nc1cc2c(Nc3ccc(Oc4ccc(Cl)c(F)c4)cc3)ncnc2cc1OCCN1CCOCC1 [compound 127]
pIC50: 6.30 to 6.52
//
Compound: CC#CC(=O)Nc1cc2c(Nc3ccc(OCc4cnccn4)c(Cl)c3)ncnc2cc1OCCCN1CCOCC1 [compound 170]
pIC50: 8.00 to 8.30

Query compound follows.
Task: I have this compound here, C=CC(=O)Nc1cc2c(Nc3cc(Cl)c(OCc4cccc(F)c4)cc3F)ncnc2cc1O[C@@H]1CCN(C)C1 [compound 133] , and I need its recorded pIC50.
Result: 7.00 to 7.30

* * *

Consider the following molecules and their measured pIC50 readings.
molecular target: EGFR SVD (Homo sapiens, UniProt P00533, DUP768-770); construct: expressed in transfected cells; host or cells: BaF3 (murine pro-B), retroviral pMXs-IRES-Blasticidin; assay: Activity for inhibiting EGFR (Table A), EGFR SVD; assay type: cell-based; details: read-out: EGFR SVD, potency code (IC50)
Sequence (P00533 with tags, fused parts or gaps DUP768-770): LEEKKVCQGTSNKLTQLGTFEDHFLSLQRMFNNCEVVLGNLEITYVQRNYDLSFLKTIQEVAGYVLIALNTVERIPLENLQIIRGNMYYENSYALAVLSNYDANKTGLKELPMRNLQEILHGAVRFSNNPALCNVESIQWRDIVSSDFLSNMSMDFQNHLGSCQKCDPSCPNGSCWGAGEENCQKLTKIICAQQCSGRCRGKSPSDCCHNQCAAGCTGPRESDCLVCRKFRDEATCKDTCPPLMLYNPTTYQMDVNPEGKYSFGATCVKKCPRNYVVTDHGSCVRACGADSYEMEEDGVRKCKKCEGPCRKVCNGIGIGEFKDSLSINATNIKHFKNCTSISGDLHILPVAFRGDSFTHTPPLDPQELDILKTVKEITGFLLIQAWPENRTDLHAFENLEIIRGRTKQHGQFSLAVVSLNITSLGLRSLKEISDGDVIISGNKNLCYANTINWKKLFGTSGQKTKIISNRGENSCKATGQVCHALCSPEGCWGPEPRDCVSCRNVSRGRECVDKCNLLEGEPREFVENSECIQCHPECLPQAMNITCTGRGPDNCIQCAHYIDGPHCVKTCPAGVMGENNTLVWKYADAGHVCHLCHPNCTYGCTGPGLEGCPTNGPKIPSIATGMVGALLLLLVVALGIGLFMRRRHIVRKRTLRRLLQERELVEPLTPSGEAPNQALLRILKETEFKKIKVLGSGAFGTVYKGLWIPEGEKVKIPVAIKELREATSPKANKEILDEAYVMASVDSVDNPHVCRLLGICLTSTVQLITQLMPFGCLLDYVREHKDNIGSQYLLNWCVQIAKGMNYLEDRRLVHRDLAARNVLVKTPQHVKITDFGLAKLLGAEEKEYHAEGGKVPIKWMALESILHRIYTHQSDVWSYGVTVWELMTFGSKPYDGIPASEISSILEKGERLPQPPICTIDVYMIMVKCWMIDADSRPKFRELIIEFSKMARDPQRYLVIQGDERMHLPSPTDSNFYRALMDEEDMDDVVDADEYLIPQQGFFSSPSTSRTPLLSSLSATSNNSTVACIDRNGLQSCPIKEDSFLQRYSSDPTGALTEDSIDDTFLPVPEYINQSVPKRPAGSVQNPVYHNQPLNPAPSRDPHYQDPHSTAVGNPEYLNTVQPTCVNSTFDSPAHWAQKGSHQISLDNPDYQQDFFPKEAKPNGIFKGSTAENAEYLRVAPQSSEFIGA
pIC50: −log10 of the molar value.

Some entries whose results are on file:
Molecule: C=CC(=O)Nc1cc2c(Nc3ccc(OCc4ccccn4)c(Cl)c3)ncnc2cc1OCCN1CCC1 [compound 33]
pIC50: 7.00 to 7.30
//
Molecule: C=CC(=O)Nc1cc2c(Nc3ccc(OCc4ccccn4)c(Cl)c3)ncnc2cc1OCCCN1CCOCC1 [compound 21]
pIC50: 7.70 to 8.00
//
Molecule: C=CC(=O)Nc1cc2c(Nc3ccc(OCc4ccccn4)c(Cl)c3)ncnc2cc1OCC1(N(C)C)CC1 [compound 54]
pIC50: 7.00 to 7.30
//
Molecule: C=CC(=O)Nc1cc2c(Nc3ccc(OCc4ccccn4)c(Cl)c3)ncnc2cc1OCCN(C)C1CCOC1 (stereo not drawn) [compound 41]
pIC50: 7.30 to 7.52
//
Molecule: C=CC(=O)Nc1cc2c(Nc3ccc(OCc4ccccn4)c(Cl)c3)ncnc2cc1OCCN1CC(OC)C1 [compound 35]
pIC50: 7.52 to 7.70
//
Molecule: C=CC(=O)Nc1cc2c(Nc3ccc(OCc4ccccn4)c(Cl)c3)ncnc2cc1C#C[C@@H]1[C@H]2CN(C)C[C@@H]12 [compound 26]
pIC50: 7.30 to 7.52
//
Molecule: C=CC(=O)Nc1cc2c(Nc3ccc(OCc4ccccn4)c(Cl)c3)ncnc2cc1OCCN1CCCC1 [compound 28]
pIC50: 7.30 to 7.52
//
Molecule: C=CC(=O)Nc1cc2c(Nc3ccc(OCc4ccccn4)c(Cl)c3)ncnc2cc1OCCC1(N(C)C)CC1 [compound 102]
pIC50: 7.30 to 7.52

Task: What does the data say about its pIC50? Entry: C=CC(=O)Nc1cc2c(Nc3ccc(OCc4ccccn4)c(Cl)c3)ncnc2cc1OC1CN(C)C1 [compound 25]
Result: 7.30 to 7.52

* * *

biological target: EGFR SVD (Homo sapiens, UniProt P00533, DUP768-770); construct: expressed in transfected cells; host or cells: BaF3 (murine pro-B), retroviral pMXs-IRES-Blasticidin; experiment: BaF3 cell proliferation assay, EGFR SVD (Table A); type: cell-based; details: potency code, 3 days, CellTiterGlo, read-out: EGFR SVD (Activity for Inhibiting EGFR)
Measure: IC50

Compound: C=CC(=O)Nc1cc2c(Nc3ccc(OCc4ccccn4)c(Cl)c3)ncnc2cc1OCCN1CCN(C)CC1
Reported result: 10 to 20 nM

Compound: CC#CC(=O)Nc1cc2c(Nc3ccc(OCc4ccccn4)c(Cl)c3)ncnc2cc1OCCN1CCOCC1
Reported result: 10 to 20 nM

Compound: C=CC(=O)Nc1cc2c(Nc3ccc(OCc4ccccn4)c(Cl)c3)ncnc2cc1OCCN1CCCC1
Reported result: 30 to 50 nM

Compound: C=CC(=O)Nc1cc2c(Nc3ccc(OCc4ccccn4)c(Cl)c3)ncnc2cc1OCCN1CC(OC)C1
Reported result: 20 to 30 nM

Compound: C=CC(=O)Nc1cc2c(Nc3ccc(OCc4ccccn4)c(Cl)c3)ncnc2cc1OCCCN1CCN(C)CC1
Reported result: 20 to 30 nM

Task: Can you look up the measured IC50 of C=CC(=O)Nc1cc2c(Nc3ccc(OCc4ccccn4)c(Cl)c3)ncnc2cc1OCCN1CC2COCC2C1 (stereo not shown) for me?
Result: 30 to 50 nM

Task: Data request, read-out IC50, for C=CC(=O)Nc1cc2c(Nc3ccc(OCc4ccccn4)c(Cl)c3)ncnc2cc1OCCN1CCOCC1
Result: 20 to 30 nM

* * *

Reported IC50 values for a set of molecules
Molecular target: HER2 S310F (Homo sapiens, UniProt P04626, S310F)
Construct: expressed in transfected cells; host or cells: BaF3 (murine pro-B)
Assay: Activity for inhibiting HER2 (Table B), HER2 S310F
Assay type: cell-based
Conditions: read-out: HER2 S310F, potency code (IC50)
Method: EC50 values were determined with the same application.

Molecule: C=CC(=O)Nc1cc2c(Nc3ccc(OCc4cccnn4)c(Cl)c3)ncnc2cc1OCCN1CC2CCC(C1)O2 [compound 173]
Target of assay: HER2 S310F (Homo sapiens, UniProt P04626, S310F)
IC50: 30 to 50 nM
--
Molecule: C=CC(=O)Nc1cc2c(Nc3ccc(OCc4ccccn4)c(Cl)c3)ncnc2cc1C#C[C@H]1CCNC1 [compound 86]
Target of assay: HER2 S310F (Homo sapiens, UniProt P04626, S310F)
IC50: 20 to 30 nM
--
Molecule: CC#CC(=O)Nc1cc2c(Nc3ccc(OCc4ncccn4)c(Cl)c3)ncnc2cc1OCCCN1CCOCC1 [compound 168]
Target of assay: HER2 S310F (Homo sapiens, UniProt P04626, S310F)
IC50: 20 to 30 nM
--
Molecule: C=CC(=O)Nc1cc2c(Nc3ccc(OCc4ccccn4)c(Cl)c3)ncnc2cc1C#CC1CCCN1 (stereo not shown) [compound 83]
Target of assay: HER2 S310F (Homo sapiens, UniProt P04626, S310F)
IC50: 10 to 20 nM
--
Molecule: CC#CC(=O)Nc1cc2c(Nc3cc(Cl)c(OCc4cccc(F)c4)cc3F)ncnc2cc1OCCN1CCOCC1 [compound 149]
Target of assay: HER2 S310F (Homo sapiens, UniProt P04626, S310F)
IC50: 10 to 20 nM
--
Molecule: C=CC(=O)Nc1cc2c(Nc3ccc(OCc4cccc(C)n4)c(Cl)c3)ncnc2cc1OCCCN1CCOCC1 [compound 129]
Target of assay: HER2 S310F (Homo sapiens, UniProt P04626, S310F)
IC50: 30 to 50 nM

Query molecule follows.
Task: Item C=CC(=O)Nc1cc2c(Nc3ccc(OCc4ccccn4)c(Cl)c3)ncnc2cc1C#C[C@@H]1[C@H]2CN(C3COC3)C[C@@H]12 [compound 113] has what recorded IC50?
Result: 30 to 50 nM

* * *

molecular target: HER2 S310F (Homo sapiens, UniProt P04626, S310F); construct: expressed in transfected cells; host or cells: BaF3 (murine pro-B); experiment: Activity for inhibiting HER2 (Table B), HER2 S310F; type: cell-based; details: read-out: HER2 S310F, potency code (IC50)
Here the recorded IC50 is given for each entry.

The cases that follow already have their IC50 on record.
Molecule: C=CC(=O)Nc1cc2c(Nc3ccc(OCc4ccccn4)c(Cl)c3)ncnc2cc1OCC[C@H]1CCCN1C [compound 95]
Target of assay: HER2 S310F (Homo sapiens, UniProt P04626, S310F)
IC50: 5 to 10 nM

Molecule: C=CC(=O)Nc1cc2c(Nc3ccc(OCc4ccccn4)c(Cl)c3)ncnc2cc1OCCC1(N(C)C)CC1 [compound 102]
Target of assay: HER2 S310F (Homo sapiens, UniProt P04626, S310F)
IC50: 20 to 30 nM

Molecule: CC#CC(=O)Nc1cc2c(Nc3cc(Cl)c(OCc4cccc(F)c4)cc3F)ncnc2cc1OCCCN1CC(OC)C1 [compound 136]
Target of assay: HER2 S310F (Homo sapiens, UniProt P04626, S310F)
IC50: 30 to 50 nM

Task: Fill in the blank: the reported IC50 of C=CC(=O)Nc1cc2c(Nc3ccc(OCc4ccccn4)c(Cl)c3)ncnc2cc1OCCN1C2CCC1COC2 [compound 31] is ____.
Result: 30 to 50 nM
